Test: Inhibition of gamma-secretase-mediated APP cleavage assessed as amyloid beta40 level after 2 hrs by ELISA
PROPERTY LABEL: IC50 (nM)

O=C1NCCCC[C@H]1N(Cc1cnc2ncccc2c1)S(=O)(=O)c1ccc(Cl)cc1 ... 290

A: Cc1cccc(CN([C@@H]2CCCCNC2=O)S(=O)(=O)c2ccc(Cl)cc2)n1
B: O=C1NCCCC[C@H]1N(Cc1ccc2nccnc2c1)S(=O)(=O)c1ccc(Cl)cc1
Returns the identifier with the smallest measured IC50 among A and B . Mark your answer with the label of the selected entry.
B

A: COC(=O)c1ccc(CN([C@@H]2CCCCNC2=O)S(=O)(=O)c2ccc(Cl)cc2)cc1
B: O=C1NCCCC[C@H]1N(Cc1csnn1)S(=O)(=O)c1ccc(Cl)cc1
C: COc1ccc(CN([C@@H]2CCCCNC2=O)S(=O)(=O)c2ccc(Cl)cc2)cc1OC
D: O=C(NC1CCCC1)c1ccc(CN([C@@H]2CCCCNC2=O)S(=O)(=O)c2ccc(Cl)cc2)cc1
E: O=C1NCCCC[C@H]1N(Cc1cc2ccccc2s1)S(=O)(=O)c1ccc(Cl)cc1
Give the ascending ranking of the items by reported IC50. Please list each label once, in the requested order.
A, E, D, C, B
(A: 3 nM, E: 7 nM, D: 23 nM, C: 170 nM, B: 758 nM)

// provenance: ChEMBL document CHEMBL1777728
